Source of measurements: patent US7164024B2

Listed below: Ki values for each entry.
- target_system: muscarinic acetylcholine receptors of human m2 (Homo sapiens)
- Construct: purchased Receptor Biology, Inc; host or cells: CHO cells
- Sequence (P08172 1-466): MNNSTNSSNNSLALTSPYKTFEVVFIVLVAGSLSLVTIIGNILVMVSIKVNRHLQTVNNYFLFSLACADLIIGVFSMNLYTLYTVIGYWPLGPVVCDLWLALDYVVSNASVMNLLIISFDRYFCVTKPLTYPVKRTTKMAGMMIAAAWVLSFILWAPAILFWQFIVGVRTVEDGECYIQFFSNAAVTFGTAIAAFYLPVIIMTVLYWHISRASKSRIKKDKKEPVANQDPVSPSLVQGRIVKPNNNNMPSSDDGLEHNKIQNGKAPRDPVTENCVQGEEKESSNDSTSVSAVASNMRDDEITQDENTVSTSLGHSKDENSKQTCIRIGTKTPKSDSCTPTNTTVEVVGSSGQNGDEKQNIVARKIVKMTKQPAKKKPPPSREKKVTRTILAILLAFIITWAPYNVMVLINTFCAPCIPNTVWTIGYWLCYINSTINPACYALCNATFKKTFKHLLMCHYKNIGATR
- assay_info: Test on inhibition of binding to muscarinic receptors (m2)
- assay_setup: human m2 expressed in CHO cells, 0.2 nM [3H]-N-methylscopolamine, 5000 nM GTPγS, 120 minutes at room temperature

{"compound": "O=C(c1cccnc1)N1CCCC(CCN2CCC(n3c(=O)[nH]c4ccccc43)CC2)CC1 (single isomer, unassigned) [Example 9]", "Ki / nM": 31}
{"compound": "O=C(c1cnccn1)N1CCC(CCN2CCC(n3c(=O)[nH]c4ccccc43)CC2)CC1 [Example 4]", "Ki / nM": 73}
{"compound": "CC(CN1CCC(n2c(=O)[nH]c3ccccc32)CC1)C1CCN(C(=O)c2cccnc2)CC1 (stereo not drawn) [Example 12]", "Ki / nM": 24}

====

- target_system: muscarinic acetylcholine receptors of human m1 (Homo sapiens, UniProt P11229)
- Construct: purchased Receptor Biology, Inc; host or cells: CHO cells
- Sequence (P11229 whole entry): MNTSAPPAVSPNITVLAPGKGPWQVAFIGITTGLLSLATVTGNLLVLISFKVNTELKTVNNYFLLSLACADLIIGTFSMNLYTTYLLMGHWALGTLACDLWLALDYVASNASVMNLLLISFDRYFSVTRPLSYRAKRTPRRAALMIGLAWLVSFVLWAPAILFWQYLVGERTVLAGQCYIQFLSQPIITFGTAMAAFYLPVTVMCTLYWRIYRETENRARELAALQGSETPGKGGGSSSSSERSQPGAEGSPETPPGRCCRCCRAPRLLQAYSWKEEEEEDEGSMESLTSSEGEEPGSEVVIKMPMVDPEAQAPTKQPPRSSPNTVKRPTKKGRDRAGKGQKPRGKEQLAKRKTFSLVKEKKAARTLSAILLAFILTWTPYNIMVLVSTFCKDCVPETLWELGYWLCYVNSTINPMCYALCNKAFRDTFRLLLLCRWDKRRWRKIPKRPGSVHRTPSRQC
- assay_info: Test on inhibition of binding to muscarinic receptors (m1)
- assay_setup: human m1 expressed in CHO cells, 0.2 nM [3H]-N-methylscopolamine, 120 minutes at room temperature
Listed below: Ki values for each entry.
observation_type: Ki (nM)

{"compound": "CC(CN1CCC(n2c(=O)[nH]c3ccccc32)CC1)C1CCN(C(=O)c2cccnc2)CC1 (stereo not drawn)", "target_system": "muscarinic acetylcholine receptors of human m1 (Homo sapiens, UniProt P11229)", "observation_type": "Ki", "value": 22}
{"compound": "O=C(c1cnccn1)N1CCC(CCN2CCC(n3c(=O)[nH]c4ccccc43)CC2)CC1", "target_system": "muscarinic acetylcholine receptors of human m1 (Homo sapiens, UniProt P11229)", "observation_type": "Ki", "value": 28}
{"compound": "O=C(c1cccnc1)N1CCCC(CCN2CCC(n3c(=O)[nH]c4ccccc43)CC2)CC1 (single isomer, unassigned)", "target_system": "muscarinic acetylcholine receptors of human m1 (Homo sapiens, UniProt P11229)", "observation_type": "Ki", "value": 25}

====

- target_system: muscarinic acetylcholine receptors of human m5 (Homo sapiens, UniProt P08912)
- Construct: purchased Receptor Biology, Inc; host or cells: CHO cells
- Sequence (P08912 1-532): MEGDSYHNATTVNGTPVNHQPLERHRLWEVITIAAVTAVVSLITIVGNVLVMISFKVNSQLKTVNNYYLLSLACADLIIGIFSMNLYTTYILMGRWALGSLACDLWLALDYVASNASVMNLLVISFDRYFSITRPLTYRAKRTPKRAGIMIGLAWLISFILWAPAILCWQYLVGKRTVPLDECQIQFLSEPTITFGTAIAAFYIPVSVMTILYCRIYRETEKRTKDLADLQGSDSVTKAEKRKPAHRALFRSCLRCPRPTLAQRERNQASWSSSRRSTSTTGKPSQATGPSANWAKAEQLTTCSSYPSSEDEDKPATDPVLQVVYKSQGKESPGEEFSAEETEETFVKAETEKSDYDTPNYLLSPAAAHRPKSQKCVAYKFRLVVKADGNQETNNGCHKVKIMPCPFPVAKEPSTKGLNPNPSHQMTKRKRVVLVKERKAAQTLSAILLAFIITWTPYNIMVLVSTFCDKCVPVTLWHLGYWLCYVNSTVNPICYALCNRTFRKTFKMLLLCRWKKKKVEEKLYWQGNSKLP
- assay_info: Test on inhibition of binding to muscarinic receptors (m5)
- assay_setup: human m5 expressed in CHO cells, 0.2 nM [3H]-N-methylscopolamine, 120 minutes at room temperature
Listed below: Ki values for each entry.
observation_type: Ki (nM)

{"molecule": "O=C(c1cccnc1)N1CCCC(CCN2CCC(n3c(=O)[nH]c4ccccc43)CC2)CC1 (single isomer, unassigned) [Example 9]", "target_system": "muscarinic acetylcholine receptors of human m5 (Homo sapiens, UniProt P08912)", "observation_type": "Ki", "value": 450}
{"molecule": "O=C(c1cnccn1)N1CCC(CCN2CCC(n3c(=O)[nH]c4ccccc43)CC2)CC1 [Example 4]", "target_system": "muscarinic acetylcholine receptors of human m5 (Homo sapiens, UniProt P08912)", "observation_type": "Ki", "value": 260}
{"molecule": "CC(CN1CCC(n2c(=O)[nH]c3ccccc32)CC1)C1CCN(C(=O)c2cccnc2)CC1 (stereo not drawn) [Example 12]", "target_system": "muscarinic acetylcholine receptors of human m5 (Homo sapiens, UniProt P08912)", "observation_type": "Ki", "value": 220}
